Values were extracted from the supplement of paper PMC10567573.

Readings of protein stability index for the listed variants
B1: DCAF4 (parent)
chain: TTKCVRQYEGHVNEYAYLPLHVHE

# Variants of: B1
# assay_procedure: protein stability index of a GFP-peptide fusion (GPS, HEK-293T) (PSI 1-6); higher = more stable;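 further: lentivirally expressed fusions sorted by FACS into six bins by GFP to DsRed ratio, PSI derived from sequencing read proportions per bin multiplied by bin number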
# recorded_conditions: c terminus: a fixed tail appended
measured_quantity: protein stability index

> print(dat)
    variant  test.value
 1      Q7I        2.17
 2      Y8K        3.52
 3     V22D        3.85
 4     Y17A        4.37
 5     E24N        2.46
 6      R6G        2.58
 7      Y8H        2.64
 8     A16V         2.2
 9     L20Q        3.06
10     H21R        2.69
11     V12C        2.48
